Biological target: UniProt:O95398
Sequence (O95398 whole entry): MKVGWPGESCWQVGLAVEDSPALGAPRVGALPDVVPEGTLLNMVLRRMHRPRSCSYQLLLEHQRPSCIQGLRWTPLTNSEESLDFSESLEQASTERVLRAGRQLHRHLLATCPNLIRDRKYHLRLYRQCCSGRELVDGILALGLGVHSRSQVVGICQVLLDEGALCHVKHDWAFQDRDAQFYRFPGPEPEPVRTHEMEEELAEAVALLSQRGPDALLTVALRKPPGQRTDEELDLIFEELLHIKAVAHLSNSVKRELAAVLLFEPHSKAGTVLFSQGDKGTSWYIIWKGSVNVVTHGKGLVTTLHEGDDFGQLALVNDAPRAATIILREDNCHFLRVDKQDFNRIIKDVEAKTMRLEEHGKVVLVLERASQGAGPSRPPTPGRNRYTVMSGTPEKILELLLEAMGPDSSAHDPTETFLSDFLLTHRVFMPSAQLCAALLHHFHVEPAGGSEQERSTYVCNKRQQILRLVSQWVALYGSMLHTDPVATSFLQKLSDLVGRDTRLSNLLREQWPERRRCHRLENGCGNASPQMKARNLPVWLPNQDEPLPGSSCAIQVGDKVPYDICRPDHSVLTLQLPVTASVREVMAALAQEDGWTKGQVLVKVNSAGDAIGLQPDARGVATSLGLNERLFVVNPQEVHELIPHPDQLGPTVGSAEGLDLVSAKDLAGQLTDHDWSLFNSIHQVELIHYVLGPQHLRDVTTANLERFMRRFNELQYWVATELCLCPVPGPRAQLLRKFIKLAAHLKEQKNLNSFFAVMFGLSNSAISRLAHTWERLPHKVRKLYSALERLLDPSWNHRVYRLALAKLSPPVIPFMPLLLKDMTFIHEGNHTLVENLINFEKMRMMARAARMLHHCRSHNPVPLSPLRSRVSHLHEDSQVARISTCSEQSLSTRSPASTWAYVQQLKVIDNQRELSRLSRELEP
Assay: Binding affinity to GST-tagged human EPAC1 CNBD (149 to 318 residues) expressed in Escherichia coli BL21 (DE3) incubated for 30 mins by 8-NBD-cAMP based competitive fluorescence assay
measured property: pKd
The read-out pKd is expressed as -log10 of concentration in moles per litre.

Fill in pKd for record `Cc1ccc(S(=O)(=O)NC(=O)COc2ccc3ccccc3c2)c(C)c1`
5.18

---

target: Rap guanine nucleotide exchange factor 3 (Homo sapiens, UniProt O95398, L273W); experiment: Binding affinity to GST-tagged human EPAC1 L273W mutant expressed in Escherichia coli BL21 (DE3) incubated for 30 mins by 8-NBD-cAMP based competitive fluorescence assay
measured property: Kd (µM)
Respond with the bare value in µM.

In one line, give reported Kd of the entry `Cc1ccc(S(=O)(=O)NC(=O)COc2ccc3ccccc3c2)c(C)c1` .
4.9
